Biological target: Glucocorticoid Receptor (Homo sapiens, UniProt P04150)
Construct: These cells express large amount of the GR and are very responsive to GC treatment; endogenous in cells; host or cells: A549 cells transiently transfected with the MMTV-LUC reporter
Sequence (P04150 1-777): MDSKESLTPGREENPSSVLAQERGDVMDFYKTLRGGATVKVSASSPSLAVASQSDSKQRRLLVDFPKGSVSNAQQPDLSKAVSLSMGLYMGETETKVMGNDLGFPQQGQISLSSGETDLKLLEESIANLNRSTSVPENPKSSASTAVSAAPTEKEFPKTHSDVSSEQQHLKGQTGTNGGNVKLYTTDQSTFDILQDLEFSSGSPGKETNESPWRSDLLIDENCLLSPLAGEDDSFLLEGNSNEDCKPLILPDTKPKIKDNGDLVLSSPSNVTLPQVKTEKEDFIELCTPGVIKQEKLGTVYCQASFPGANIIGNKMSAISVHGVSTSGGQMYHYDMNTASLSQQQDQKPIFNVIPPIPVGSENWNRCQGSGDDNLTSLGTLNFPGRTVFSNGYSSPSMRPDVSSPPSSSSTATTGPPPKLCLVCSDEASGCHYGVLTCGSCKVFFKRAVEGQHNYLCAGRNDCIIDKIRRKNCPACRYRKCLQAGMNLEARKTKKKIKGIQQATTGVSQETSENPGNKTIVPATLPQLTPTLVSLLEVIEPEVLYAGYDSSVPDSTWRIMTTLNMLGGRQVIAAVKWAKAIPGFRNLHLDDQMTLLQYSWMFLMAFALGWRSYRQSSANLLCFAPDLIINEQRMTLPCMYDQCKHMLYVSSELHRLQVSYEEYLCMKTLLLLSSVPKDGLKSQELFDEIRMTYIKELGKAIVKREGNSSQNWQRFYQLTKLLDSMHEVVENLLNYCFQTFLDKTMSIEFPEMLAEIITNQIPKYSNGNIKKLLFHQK
Test: Trans-Activation Modulation of Glucocorticoid Receptor (GRAMMER), MMTV-LUC reporter gene in A549 cells
Type: cell-based
Settings: inflection point; A549 cells; compounds in the art (WO03/086294); read-out: Transactivation A549 Cells GRAMMER IP
Parameter Measured: pEC50
Scale explanation: pEC50 corresponds to minus log10 of a concentration expressed in moles per litre.

Could you please provide reported pEC50 for C[C@]12Cc3cnn(-c4ccc(F)cc4)c3C=C1CC[C@@H]2C(=O)NCc1ccccc1 [reference compound] ? Thanks!
6.30

###

Target: human GR (Homo sapiens, UniProt P04150)
Construct: U937 cells contain an endogenous glucocorticoid receptor (GR); endogenous in cells; host or cells: U937 cells stably transfected with the TNF-alpha promoter/beta-lactamase reporter
Assay: Transrepression Assay (GITAR), TNFα-β-lactamase reporter gene in U937 cells
Assay type: cell-based
Settings: U-937, U937 cells; activity repressed by 100 nM dexamethasone = 100%; Table 1; read-out: Transrepression U937 Cells GITAR Emax
Parameter Measured: Emax (%)
Respond with the bare value in %.

Here is how some compounds turned out for Emax.
COc1cccc(CN(C)C(=O)[C@H]2CCC3=Cc4c(cnn4-c4ccc(F)cc4)C[C@@]32C)c1 | 27.8
CC(C)CN(C[C@@H](C)O)C(=O)[C@H]1CCC2=Cc3c(cnn3-c3ccc(F)cc3)C[C@@]21C | 76.9
C[C@]12Cc3cnn(-c4ccc(F)cc4)c3C=C1CC[C@@H]2C(=O)N(Cc1ccccc1F)CC(O)C(F)(F)F (stereo partly shown) | 76.7

API: the following record is the query input.
Could you please provide reported Emax for C[C@]12Cc3cnn(-c4ccc(F)cc4)c3C=C1CC[C@@H]2C(=O)N(CCc1ccccc1F)CC(O)CC(F)(F)F (stereo partly shown) ? Thanks!
51.8
